system-name: T1, Recombinant Human DLL4 (delta-like protein 4) (human, UniProt Q9NR61 27-524)
T1 construct: Bought recombinant human DLL4 coated on the ELISA plate; also called rHuman DLL4
test-name: ELISA, DLL4 coated on plate, Fab at 100 nM (2-fold dilution series), absorbance at 450 nm
Here, each record is paired with measured ELISA signal data.
// no unit, no text: just the number

{"binder": "Fab VH5-51_IGHD5-18*01>3_IGHJ4*01 G100K/G104T G24L/S28R/G35V (KT LRV) & V3-4_IGLJ1*01 V91L/S96P S52F (Fab, V domains shown, Fab; Expressed in E. coli with CH1 (plasmid A, His6 and Flag tags) and lambda CL (plasmid E); also called G100K/G104T G24L/S28R/G35V & V91L/S96P S52F) VH: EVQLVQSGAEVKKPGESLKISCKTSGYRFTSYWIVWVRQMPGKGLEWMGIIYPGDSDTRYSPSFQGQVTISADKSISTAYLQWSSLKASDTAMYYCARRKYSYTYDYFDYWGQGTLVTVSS VL: QTVVTQEPSFSVSPGGTVTLTCGLSSGSVSTSYYPSWYQQTPGQAPRTLIYFTNTRSSGVPDRFSGSILGNKAALTITGAQADDESDYYCLLYMGPGISYVFGTGTKVTVL", "quantitative-result": 0.99}
{"binder": "Fab VH5-51_IGHD5-18*01>3_IGHJ4*01 G100K/G104T G24T/S28R/G35V (KT TRV) & V3-4_IGLJ1*01 V91L/S96P S52G (LP S52G) (Fab, V domains shown, Fab; Expressed in E. coli with CH1 (plasmid A, His6 and Flag tags) and lambda CL (plasmid E); also called H:KT TRV & L:LP S52G) VH: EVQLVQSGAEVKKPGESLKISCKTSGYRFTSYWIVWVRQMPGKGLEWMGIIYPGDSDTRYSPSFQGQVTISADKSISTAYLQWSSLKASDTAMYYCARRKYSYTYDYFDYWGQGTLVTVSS VL: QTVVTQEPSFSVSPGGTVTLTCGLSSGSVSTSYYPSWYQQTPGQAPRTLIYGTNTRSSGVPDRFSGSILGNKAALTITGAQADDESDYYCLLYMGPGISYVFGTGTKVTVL", "quantitative-result": 1.14}
{"binder": "Fab VH5-51_IGHD5-18*01>3_IGHJ4*01 & V3-4_IGLJ1*01 (parental, wildtype) (Fab, V domains shown, Fab; Expressed in E. coli with CH1 (plasmid A, His6 and Flag tags) and lambda CL (plasmid E); also called Wildtype & Wildtype; parent Hit Fab) VH: EVQLVQSGAEVKKPGESLKISCKGSGYSFTSYWIGWVRQMPGKGLEWMGIIYPGDSDTRYSPSFQGQVTISADKSISTAYLQWSSLKASDTAMYYCARRGYSYGYDYFDYWGQGTLVTVSS VL: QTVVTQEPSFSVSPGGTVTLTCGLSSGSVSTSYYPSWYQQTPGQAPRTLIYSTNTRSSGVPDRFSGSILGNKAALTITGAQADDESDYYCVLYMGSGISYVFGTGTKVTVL", "quantitative-result": 0.17}

# context switch: different binder, same ELISA signal
The reported value for Fab VH5-51_IGHD5-18*01>3_IGHJ4*01 G100K/G104T G24L/S28R/G35V (KT LRV) & V3-4_IGLJ1*01 V91L/S96P S52M (Fab, V domains shown, Fab; Expressed in E. coli with CH1 (plasmid A, His6 and Flag tags) and lambda CL (plasmid E); also called G100K/G104T G24L/S28R/G35V & V91L/S96P S52M) VH: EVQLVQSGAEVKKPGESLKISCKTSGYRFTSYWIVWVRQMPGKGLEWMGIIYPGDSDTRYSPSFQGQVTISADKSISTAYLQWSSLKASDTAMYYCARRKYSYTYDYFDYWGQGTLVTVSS VL: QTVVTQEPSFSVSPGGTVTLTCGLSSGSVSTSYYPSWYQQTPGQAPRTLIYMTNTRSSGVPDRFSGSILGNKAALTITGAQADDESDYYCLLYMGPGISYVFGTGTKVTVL in terms of ELISA signal is 1.01
